- Tested on: T47D
- assay-details: NCI tumour cell line growth inhibition, 48 h
Activity calls are given as the source filed them. No stated cut-off is given here; in the data, active = GI50 up to about 1.1 µM and inactive = higher. *1 amine or outer side, *2 acyl side, *3 side chain or, on linkers, in order; H or OH if unused. Where a SMILES comes first, the peptide text is derived from it. Bridges are numbered along the chain shown (N, C = ends). Roman numbers before positions name the chains, in order. [ ]: non-standard residue; d: D form. Actinocin(9to1) = Cc1c2oc3c(C)ccc(C(=O)[*:1])c3nc-2c(C(=O)[*:2])c(N)c1=O; NMeV = CN[CH](C(=O)O)C(C)C; Sar = CNCC(=O)O
The reply should be one of these categories: TRUE = active, FALSE = inactive

Known results for compounds:
compound	assigned-class
COc1ccc(-n2c(C)nc3ccc(NC4OC(COC(C)=O)C(OC(C)=O)C(OC(C)=O)C4OC(C)=O)cc3c2=O)cc1 (centres undefined)	FALSE
O=C1c2ccccc2C(=O)c2c(NC3CCCCC3)ccc(Nc3ccc(S(=O)(=O)O)cc3)c21	FALSE
O=c1ccc2ccc(OP(=O)(O)O)cc2o1	FALSE
C=C(CCOC)CCC1CCCCC/C1=N\N(C)C (centres undefined)	FALSE

Per the records of this test, what outcome belongs to Cc1c2oc3c(C)ccc(C(=O)NC4C(=O)NC(C(C)O)C(=O)N5CCCC5C(=O)N(C)CC(=O)N(C)C(C(C)C)C(=O)OC4C)c3nc-2c(C(=O)NC2C(=O)NC(C(C)O)C(=O)N3CCCC3C(=O)N(C)CC(=O)N(C)C(C(C)C)C(=O)OC2C)c(N)c1=O (centres undefined) (I: TTP[Sar][NMeV] / II: TTP[Sar][NMeV]; ester I:1-I:C, II:1-II:C; linker I:N-II:N via Actinocin(9to1); configuration not given here) ?
TRUE

---

- Tested on: MDA-N
- assay-details: NCI tumour cell line growth inhibition, 48 h
Activity calls are given as the source filed them. Cut-off read from the data, not from the text of the source: active = GI50 up to about 1.1 µM and inactive = higher.
reported-endpoint: GI50

Illustrative cases are given below, each with its answer.
molecule	experimental-target	measured
CC1OC1C(=O)P(=O)(O)O (centres undefined)	MDA-N	> 100 µM (inactive)
Cc1ccc(S(=O)(=O)N/N=C2/C3C(CC2(C)C)C2(C)CCCC3(C)C2O)cc1 (centres undefined)	MDA-N	20.1 µM (inactive)
O=C1c2ccccc2C(=O)c2c(NC3CCCCC3)ccc(Nc3ccc(S(=O)(=O)O)cc3)c21	MDA-N	46 µM (inactive)

Please report the recorded GI50 for C/C(=N/OC(=O)c1cccc2c(=O)c3ccccc3[nH]c12)[C@H]1CC[C@H]2[C@@H]3CCC4=C/C(=N/OC(=O)c5cccc6c(=O)c7ccccc7[nH]c56)CC[C@]4(C)[C@H]3CC[C@]12C .
14.1 µM (inactive)

Same read-out for O=C(CCCN1CCC2(CC1)CC(=O)N(N1CCCCCC1)C2=O)c1ccc(F)cc1 ?
> 100 µM (inactive)

Same for CC(C)N(C(=O)C1(O)c2ccccc2C=Cc2ccccc21)C(C)C
19.3 µM (inactive)

---

GI50: recorded values
- System: SK-MEL-28
- assay-details: NCI tumour cell line growth inhibition, 48 h
The source made the active and inactive calls. Cut-off read from the data, not from the text of the source: active = GI50 up to about 1.1 µM and inactive = higher.

The examples below pair each entry with its known result.
>>> df
                                   compound             measured
0  O=C(CCCN1CCC2(CC1)CC(=O)N(N1CCCCCC1)C2=O)c1ccc(F)cc1  > 100 µM (inactive)
1        O=C1C(Br)=C(Br)C(=O)c2ccc(=O)ccc21     27 µM (inactive)

Requested read-out GI50, target or system SK-MEL-28, entry O=[N+]([O-])c1ccc(C2=NOC(c3ccccc3F)N2C23CC4CC(CC(C4)C2)C3)cc1 (stereo unspecified)
> 100 µM (inactive)

Another: COc1cc(C2(C)SCCCS2)cc(OC)c1OC
> 100 µM (inactive)

Same read-out for COc1cc(C2c3cc4c(cc3OC(NC3CCCCC3)C2C)OCO4)cc(OC)c1OC (stereo unspecified) ?
21.8 µM (inactive)

Try this compound too: CN(C)CC1CCC/C(=C\c2ccc(OC(=O)c3ccc(Cl)cc3)cc2)C1=O (stereo unspecified)
3.15 µM (inactive)

---

- System: OVCAR-4
- assay-details: NCI tumour cell line growth inhibition, 48 h
Calls of active or inactive are those of the source. Cut-off read from the data, not from the text of the source: active = GI50 up to about 1.1 µM and inactive = higher.
Quick reference: GI50 of the listed items.

A selection of reference data follows.
compound	experimental-target	GI50
CCN(CC)CCn1c2ccccc2c(=O)c2c(OC)ccc(OC)c21	OVCAR-4	> 100 µM (inactive)
COC(=O)C1c2cc3c(c(O)c2C(O)CC1(C)O)C(=O)c1c(O)cc2c(c1C3=O)OC1OC2(C)C(O)C(N(C)C)C1O (centres undefined)	OVCAR-4	12.9 µM (inactive)
N/N=C(\Cc1ccccc1)NN=C(N)N	OVCAR-4	> 100 µM (inactive)

Fill blank: measured GI50 of the compound CC(C)(C)c1cc(/C=C2/NC(=O)NC2=O)cc(C(C)(C)C)c1O is ____.
11.4 µM (inactive)

Also CC(=O)OCC1=CC2CCC3C(C)(CCC[C@]3(C)COC(C)=O)C23CC[C@H]1C3 (some centres undefined) , if possible.
30.1 µM (inactive)

Param item: CN(C(=O)C12C3C4C1C1C2C3C41C(N)=O)C(C)(C)C (centres undefined)
> 100 µM (inactive)

---

- Tested on: MDA-N
- assay-details: NCI tumour cell line growth inhibition, 48 h
Active and inactive are the calls of the source. Cut-off read from the data, not from the text of the source: active = GI50 up to about 1.1 µM and inactive = higher.
reported-endpoint: GI50

In [3]: df
Out[3]:
                                   compound  reported_endpoint             measured
0  COC1OC2COC1(OC)C1OC(C)(C)OC21 (stereo unspecified)               GI50  > 100 µM (inactive)

Observed GI50 on MDA-N for COc1cc(S(=O)(=O)Nc2ccc(-c3csc(N4C(=O)C(Cl)C4c4ccccc4O)n3)cc2)ccc1Cl (stereo unspecified) , please.
27.5 µM (inactive)

Try the compound Clc1ccc(/N=C/c2cc3cc(Br)ccc3nc2Cl)cc1
11.2 µM (inactive)

---

- Tested on: K562
- assay-details: NCI tumour cell line growth inhibition, 48 h
Active and inactive are the calls of the source. Cut-off read from the data, not from the text of the source: active = GI50 up to about 1.1 µM and inactive = higher.
A collection of compounds and their measured GI50

Consider the reported GI50 for these compounds:
                                   compound  reported_endpoint             measured
0  O=C1O[C@H]2C3C4CCC(C4[C@@H]2I)[C@H]13 (stereo partly specified)               GI50  > 100 µM (inactive)
1   CC(C)(C)C(=O)N(C(=S)OCc1ccccn1)c1ccccc1               GI50   36.7 µM (inactive)
2  O=C1c2ccccc2C(=O)c2c(NC3CCCCC3)ccc(Nc3ccc(S(=O)(=O)O)cc3)c21               GI50     52 µM (inactive)
3  CC1(C)C(=O)C(C)(C)C12SSC1(S2)C(C)(C)C(=O)C1(C)C               GI50  > 100 µM (inactive)
4  O=C(O)C12C3CCC(C3)C1(C(=O)O)C1CCC2C1 (stereo unspecified)               GI50   89.7 µM (inactive)

Here is the next item to consider.
So what GI50 did COc1cc2ccnc3c2c(c1OC)CC1CC(O)C(OC)CC31 (stereo unspecified) get with K562?
47.2 µM (inactive)

---

Documented GI50 across a set of compounds
- System: SN12C
- assay-details: NCI tumour cell line growth inhibition, 48 h
Active and inactive are the calls of the source. Cut-off read from the data, not from the text of the source: active = GI50 up to about 1.1 µM and inactive = higher.

>>> print(df.to_string())
                                   compound  experimental_target  reported_endpoint            measured
0  COc1cccc(/C=C2/S/C(=N/Nc3nc(C)c(C(C)=O)s3)NC2=O)c1O                SN12C               GI50  31.7 µM (inactive)

Form field - read-out: GI50; system: SN12C; submitted item: CCCCCCC1NN(C(C)=O)C(CCCCCC)NN1C(C)=O (stereo unspecified)
> 100 µM (inactive)

Now try CC(C)(C)OC(=O)NCCNC(=O)OCc1ccccc1 .
> 100 µM (inactive)

Also check COc1nc(C(Cl)(Cl)Cl)c(Cl)c(OC)c1Cl
39 µM (inactive)

Item: COC(=O)C(C(=O)C(=O)Nc1ccc(C)cc1C)c1nc2ccc([N+](=O)[O-])cc2nc1O (stereo unspecified)
> 100 µM (inactive)

Lookup Cn1c(=O)c2nc3sc4c(n3c2n(C)c1=O)C(=O)c1ccccc1C4=O
> 69.2 µM (inactive)

Moving on to Oc1c2ccccc2c2c3c(cccc13)N=N2
14.8 µM (inactive)

Next entry: COC(=O)CC1(O)C(/C=C/c2ccccc2)C(C(=O)OC)C(=O)C(C(=O)OC)C1C(=O)OC (stereo unspecified)
> 100 µM (inactive)

Moving on to the next compound: CC(C)(C)OC(=O)N[C@H]1CCN(C2CCCCC2)C1=O
> 100 µM (inactive)

# iterate: CN(c1ccc(C(=O)c2ccc(N(C)S(C)(=O)=O)cc2)cc1)S(C)(=O)=O
> 100 µM (inactive)

Continue with CCCNc1ncnc2[nH]ncc12
> 100 µM (inactive)

Data provenance is ChEMBL document CHEMBL1201862.
